Listing of recorded Emax by entry.
# Measurement target: SIRT1 (Homo sapiens)
# Sequence (Q96EB6 whole entry): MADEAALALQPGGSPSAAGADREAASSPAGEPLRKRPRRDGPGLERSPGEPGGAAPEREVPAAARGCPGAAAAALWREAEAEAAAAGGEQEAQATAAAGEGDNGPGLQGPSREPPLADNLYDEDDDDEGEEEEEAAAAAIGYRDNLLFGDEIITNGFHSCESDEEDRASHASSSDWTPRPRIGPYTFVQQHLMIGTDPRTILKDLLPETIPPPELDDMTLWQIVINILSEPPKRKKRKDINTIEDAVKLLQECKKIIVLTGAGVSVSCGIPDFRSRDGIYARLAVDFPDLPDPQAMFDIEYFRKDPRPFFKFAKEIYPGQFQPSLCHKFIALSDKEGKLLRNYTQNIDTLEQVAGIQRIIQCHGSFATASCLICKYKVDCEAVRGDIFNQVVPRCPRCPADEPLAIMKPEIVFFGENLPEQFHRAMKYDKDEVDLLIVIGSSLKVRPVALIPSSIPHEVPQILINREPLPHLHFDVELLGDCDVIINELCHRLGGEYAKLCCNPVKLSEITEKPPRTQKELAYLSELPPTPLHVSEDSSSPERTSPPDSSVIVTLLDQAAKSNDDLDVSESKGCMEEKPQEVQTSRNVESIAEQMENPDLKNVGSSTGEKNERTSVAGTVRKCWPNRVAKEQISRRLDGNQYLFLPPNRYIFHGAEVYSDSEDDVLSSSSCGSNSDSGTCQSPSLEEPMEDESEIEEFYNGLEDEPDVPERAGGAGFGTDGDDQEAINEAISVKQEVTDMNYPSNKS
# Assay: TAMRA based mass spectrometry assay of SIRT1 activity
# Assay type: biochemical
# Run parameters: TAMRA assay; percent maximum fold activation; read-out: TAMRA % Fold Act

| Smiles | Observable | Value observed |
| --- | --- | --- |
| Cc1cc(NC(=O)c2cnc3ccc(-c4ccccc4Cl)nn23)ccn1 | Emax | ≥ 350% |

Reported Emax, compound Cc1ncccc1NC(=O)c1cnn2ccc(-c3ccccc3C(F)(F)F)nc12 : ____ < 350%

Reported Emax, compound O=C(Nc1cnn2ccc(-c3ccccc3C(F)(F)F)nc12)c1cccc(CN2CCOCC2)n1 : ____ ≥ 350%

Reported Emax, compound O=C(Nc1cnc2ccc(-c3ccccc3OC(F)(F)F)nn12)c1cccc(N2CCC2)n1 : ____ ≥ 350%

Reported Emax, compound O=C(Nc1cnn2ccc(-c3ccccc3C(F)(F)F)nc12)c1ccncc1 : ____ < 350%

Reported Emax, compound Cc1cccc(-c2ccc3nc(C)c(C(=O)Nc4ccc(C)nn4)n3n2)c1 : ____ < 350%

Reported Emax, compound COc1ccc(NC(=O)c2cnn3ccc(-c4ccccc4OC(F)(F)F)nc23)nn1 : ____ ≥ 350%

Reported Emax, compound Cc1nc2ccc(-c3ccccc3Cl)nn2c1NC(=O)c1cnccn1 : ____ < 350%

Reported Emax, compound CCOc1nccc(NC(=O)c2c(C)nn3ccc(-c4ccccc4C(F)(F)F)nc23)n1 : ____ ≥ 350%

Reported Emax, compound Cc1nn2ccc(-c3ccccc3C(F)(F)F)nc2c1C(=O)Nc1ccc(F)cn1 : ____ ≥ 350%

Reported Emax, compound COc1ccc(NC(=O)c2c(C)nc3ccc(-c4cccc(OC(F)(F)F)c4)nn23)nn1 : ____ < 350%

Reported Emax, compound Cc1cc(C)nc(NC(=O)c2cnc3ccc(-c4ccccc4Cl)nn23)c1 : ____ ≥ 350%

Reported Emax, compound O=C(Nc1cnc2ccc(-c3ccccc3OC(F)(F)F)nn12)c1ccccn1 : ____ ≥ 350%
